molecular target: human TLR8 (Homo sapiens (Human)); assay: TLR8 inhibition reporter assay (HEK-Blue cells, SEAP reporter, R848 stimulation); details: read-out: TLR8 IC50, HEK-Blue cells overexpressing human TLR8, R848 15.9 μM
measured_endpoint: IC50 (nM)

{"columns": ["molecule", "unit_tag", "recorded_measurement"],
 "data": [
  ["CCc1c(-c2ccnc(C)c2)[nH]c2ccc(C3CCN(C(=O)C4CCNCC4)CC3)cc12", "nM", 83.5],
  ["CCC(CC)N1CCC(c2ccc3[nH]c(-c4cc(C)nc(C)c4)c(C(C)C)c3c2)CC1", "nM", 4.7],
  ["Cc1cc(-c2[nH]c3ccc(C4CCN(C(=O)C(C)(C)C)CC4)cc3c2C(C)C)ccn1", "nM", 385],
  ["Cc1cc(-c2[nH]c3ccc(C4CCN(C5COC5)CC4)cc3c2C(C)C)cc(C)n1", "nM", 16.7]
]}

[a] CCc1c(-c2ccnc(C)c2)[nH]c2ccc(C3CCN(C(=O)C4CCNC4)CC3)cc12 (centres unmarked) [Example 633]
[b] Cc1cc(-c2[nH]c3ccc(C4CCN(C(=O)CN5CCOC[C@@H]5CO)CC4)cc3c2C(C)C)cc(C)n1
[c] CCc1c(-c2ccncc2)[nH]c2ccc(C3CCN(C4CC(C)(C)NC(C)(C)C4)CC3)cc12
[d] Cc1cc(-c2[nH]c3ccc(C4CCN(C(=O)C5CCN(Cc6ccccc6)CC5)CC4)cc3c2C(C)C)ccn1
Qu. // smallest IC50 at index 0, largest at the end Please write the labels in the order that was asked for.
Ans. c, b, d, a
(c: 8.6 nM, b: 12.9 nM, d: 22.9 nM, a: 83.3 nM)

###

molecular target: human TLR8 (Homo sapiens (Human), UniProt Q9NR97); assay: TLR8 inhibition reporter assay (HEK-Blue cells, SEAP reporter, R848 stimulation); details: read-out: TLR8 IC50, HEK-Blue cells overexpressing human TLR8, R848 15.9 μM;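 also: compounds tested from 0.05 nM to 50 µM, 22 h at 37 °C, SEAP measured with HEK-Blue Detection, inhibition relative to agonist plus DMSO versus a known inhibitor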
Sequence (Q9NR97 27-1041): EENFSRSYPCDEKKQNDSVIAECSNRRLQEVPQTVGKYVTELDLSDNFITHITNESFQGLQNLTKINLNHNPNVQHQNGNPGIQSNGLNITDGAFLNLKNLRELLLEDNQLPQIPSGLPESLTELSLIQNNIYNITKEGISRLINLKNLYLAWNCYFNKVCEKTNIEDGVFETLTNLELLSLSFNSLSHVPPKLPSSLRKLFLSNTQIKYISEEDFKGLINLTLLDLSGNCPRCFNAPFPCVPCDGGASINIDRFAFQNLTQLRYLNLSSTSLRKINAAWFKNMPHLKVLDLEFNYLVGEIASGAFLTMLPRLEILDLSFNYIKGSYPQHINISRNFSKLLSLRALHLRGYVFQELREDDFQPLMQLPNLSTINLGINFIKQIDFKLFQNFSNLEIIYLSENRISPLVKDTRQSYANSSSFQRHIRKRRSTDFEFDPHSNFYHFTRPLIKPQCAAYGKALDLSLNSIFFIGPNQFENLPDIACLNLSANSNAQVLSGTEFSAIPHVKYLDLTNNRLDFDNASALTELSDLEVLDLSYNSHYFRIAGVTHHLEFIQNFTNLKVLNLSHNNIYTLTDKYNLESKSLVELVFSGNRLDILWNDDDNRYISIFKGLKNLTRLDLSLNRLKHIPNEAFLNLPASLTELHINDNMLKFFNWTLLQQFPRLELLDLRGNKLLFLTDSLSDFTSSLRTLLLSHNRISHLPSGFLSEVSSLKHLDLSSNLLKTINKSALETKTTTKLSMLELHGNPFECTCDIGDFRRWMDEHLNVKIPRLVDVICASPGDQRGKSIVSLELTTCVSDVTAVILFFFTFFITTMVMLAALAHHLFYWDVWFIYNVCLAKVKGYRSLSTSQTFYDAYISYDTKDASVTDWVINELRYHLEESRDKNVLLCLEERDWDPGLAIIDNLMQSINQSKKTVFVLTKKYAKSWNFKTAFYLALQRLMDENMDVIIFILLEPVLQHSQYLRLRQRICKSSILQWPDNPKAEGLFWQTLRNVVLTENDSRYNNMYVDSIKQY
pIC50: −log10 of the molar value.
measured_endpoint: pIC50

{"columns": ["compound", "target_entity", "recorded_measurement"],
 "data": [
  ["CO[C@@H]1C[C@H](CO)N(CC(=O)N2CCC(c3ccc4[nH]c(-c5cc(C)nc(C)c5)c(C(C)C)c4c3)CC2)C1", "human TLR8 (Homo sapiens (Human), UniProt Q9NR97)", 7.39],
  ["Cc1cc(-c2[nH]c3ccc(C4CCN(CC(=O)N[C@H](CO)CC(C)C)CC4)cc3c2C(C)C)cc(C)n1", "human TLR8 (Homo sapiens (Human), UniProt Q9NR97)", 7.73],
  ["Cc1cc(-c2[nH]c3ccc(C4CCN(C(=O)C5CC(=O)N(C)C5)CC4)cc3c2C(C)C)c(F)cn1 (stereo not shown)", "human TLR8 (Homo sapiens (Human), UniProt Q9NR97)", 7.43],
  ["Cc1cc(-c2[nH]c3ccc(C4CCN(CC(=O)N(C)[C@H]5CCOC5)CC4)cc3c2C(C)C)cc(C)n1", "human TLR8 (Homo sapiens (Human), UniProt Q9NR97)", 7.06],
  ["Cc1cc(-c2[nH]c3ccc(C4CCN(C(=O)CN(C)C)CC4)cc3c2C(C)C)c(F)cn1", "human TLR8 (Homo sapiens (Human), UniProt Q9NR97)", 8.21]
]}

[1] Cc1cc(-c2[nH]c3ccc(C4CCN(CC(=O)N(C)C)CC4)cc3c2CC(F)F)cc(C)n1
[2] Cc1cnc(F)cc1-c1[nH]c2ccc(C3CCNCC3)cc2c1C(C)C
[3] Cc1cc(-c2[nH]c3ccc(C4CCN(C(=O)CN5CCN(C)CC5)CC4)cc3c2C(C)C)cc(C)n1
Qu. // smallest pIC50 at index 0, largest at the end Please write the labels in the order that was asked for.
Ans. 1, 2, 3
